Documented Relative potency loss (kd) across a set of binders
Biological target: T1, recombinant human IL-31 (hIL-31, BHK produced, A1277F, zcytor17lig CEE) (human, UniProt Q6EBC2 24-164)
T1 construct: also called recombinant hIL-31
T1 sequence: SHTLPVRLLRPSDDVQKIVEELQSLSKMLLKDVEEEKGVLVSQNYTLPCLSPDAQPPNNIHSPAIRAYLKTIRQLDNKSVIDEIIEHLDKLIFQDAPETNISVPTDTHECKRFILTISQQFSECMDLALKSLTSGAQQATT
Experiment: SPR (Biacore), against parent 292.12.3.1

binder: humanized 292.12.3.1 construct clone 22 (12VH5-gly + HC(fback) + LC(G66R, G68E, D70Q, T72S)) (antibody, human IgG4, V domains shown) VH: EVQLVQSGAEVKKPGESLKISCKASGYTLTRYWMQWVRQMPGKGLEWMGAIYPGDGDTRYSPSFQGQVTLTADKSISTAYLQWSSLKASDTAMYYCAFPDGYYAAPYGMDYWGQGTTVTVSS VL: DIQMTQSPSSLSASVGDRVTITCRASGNIHNYLAWYQQKPGKVPKLLIYNAKTLADGVPSRFSGSRSETQFSLTISSLQPEDVATYYCQHFWSTPWTFGQGTKVEIKR
Relative potency loss (kd): ~2 x to parent

binder: humanized 292.12.3.1 construct clone 35 (12VH1-gly + HC(F29L, R94F)) (antibody, human IgG4, V domains shown) VH: QVQLVQSGAEVKKPGASVKVSCKASGYTLTRYWMQWVRQAPGQGLEWMGAIYPGDGDTRYSQKFQGRVTMTRDTSISTVYMELSSLRSEDTAVYYCAFPDGYYAAPYGMDYWGQGTLVTVSS VL: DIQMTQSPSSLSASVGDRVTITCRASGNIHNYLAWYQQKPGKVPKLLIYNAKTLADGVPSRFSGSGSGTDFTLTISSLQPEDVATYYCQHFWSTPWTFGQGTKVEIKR
Relative potency loss (kd): ~1.5 x to parent

## Task For the binder shown here, humanized 292.12.3.1 construct clone 30 (12VH1-gly + HC(F29L, V78A, R94F) + LC(F71Y)) (antibody, human IgG4, V domains shown) VH: QVQLVQSGAEVKKPGASVKVSCKASGYTLTRYWMQWVRQAPGQGLEWMGAIYPGDGDTRYSQKFQGRVTMTRDTSISTAYMELSSLRSEDTAVYYCAFPDGYYAAPYGMDYWGQGTLVTVSS VL: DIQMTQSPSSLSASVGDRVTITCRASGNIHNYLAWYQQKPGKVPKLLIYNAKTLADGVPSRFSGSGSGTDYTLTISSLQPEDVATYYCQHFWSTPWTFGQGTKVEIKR , give the reported Relative potency loss (kd).
## Result ~1.5 x to parent

## Task Value lookup for Relative potency loss (kd); key = humanized 292.12.3.1 construct clone 36 (12VH1(germ)-gly + HC(F29L, T73K, R94F) + LC(F71Y)) (antibody, human IgG4, V domains shown) VH: QVQLVQSGAEVKKPGASVKVSCKASGYTLTRYWMQWVRQAPGQGLEWMGAIYPGDGDTRYSQKFQGRVTMTRDKSTSTVYMELSSLRSEDTAVYYCAFPDGYYAAPYGMDYWGQGTLVTVSS VL: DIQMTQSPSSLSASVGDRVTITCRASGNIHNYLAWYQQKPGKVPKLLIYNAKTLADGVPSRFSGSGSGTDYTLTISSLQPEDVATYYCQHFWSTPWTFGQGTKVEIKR
## Result ~1.5 x to parent

## Task Would you mind telling me what Relative potency loss (kd) value was observed for humanized 292.12.3.1 construct clone 9 (12VH1-gly + HC(fback)) (antibody, human IgG4, V domains shown, also called 09) VH: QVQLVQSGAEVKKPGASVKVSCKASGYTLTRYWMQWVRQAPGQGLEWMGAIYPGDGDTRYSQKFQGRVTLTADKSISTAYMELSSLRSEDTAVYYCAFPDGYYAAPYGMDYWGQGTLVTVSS VL: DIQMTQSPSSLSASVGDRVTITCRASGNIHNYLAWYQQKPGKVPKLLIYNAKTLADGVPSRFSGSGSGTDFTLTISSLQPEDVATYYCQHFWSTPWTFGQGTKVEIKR ?
## Result ~1.5 x to parent
